Below, each entry is listed with its recorded Kd.
test_target: T1, huMICB*005 alpha 3-his (human)
T1 construct: whole construct entry: GS, alpha 3 domain, GNS, His8; also called MICB005.His; MICB*005 alpha3 construct
T1 chain: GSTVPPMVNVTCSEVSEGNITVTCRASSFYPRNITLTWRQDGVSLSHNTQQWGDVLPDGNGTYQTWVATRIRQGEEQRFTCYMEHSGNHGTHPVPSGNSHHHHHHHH
assay_method_text: SPR, Biacore 8K, antibody on Protein A chip
Give just the number in nM; leave the unit off.

binder	Kd (nM)
13A9v1 (antibody, IgG1, V domains shown, humanized variant of 13A9) VH: EVQLVQSGAEVKKPGASVKVSCKASGYAFTNYLIEWVRQAPGQGLEWIGAINPGSGATNYNEKFKDRVTITADTSTSTAYLELSSLRSEDTAVYYCARFLGNYFDNWGQGTLVTVSS VL: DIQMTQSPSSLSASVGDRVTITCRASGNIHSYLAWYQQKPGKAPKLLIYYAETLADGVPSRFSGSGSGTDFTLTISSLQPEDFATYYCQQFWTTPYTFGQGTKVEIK	5.12
1D5v28 (antibody, IgG1, V domains shown, humanized variant of 1D5) VH: EIQLVQSGAEVKKPGASVKVSCKASGYAFTSQNIYWVRQAPGQGLEWIGYIEPYNVVPLYNPKFKGRATLTVDKSTSTAYLELSSLRSEDTAVYYCARSGSSNFDYWGQGTLVTVSS VL: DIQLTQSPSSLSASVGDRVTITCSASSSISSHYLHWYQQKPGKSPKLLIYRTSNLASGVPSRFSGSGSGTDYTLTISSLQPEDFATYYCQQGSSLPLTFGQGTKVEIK	1.49
1D5v14 (antibody, IgG1, V domains shown, humanized variant of 1D5; also called 1D5v14 second data point) VH: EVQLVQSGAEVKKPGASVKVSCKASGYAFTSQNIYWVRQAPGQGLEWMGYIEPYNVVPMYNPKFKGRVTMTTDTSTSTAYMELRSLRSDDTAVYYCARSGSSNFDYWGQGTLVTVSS VL: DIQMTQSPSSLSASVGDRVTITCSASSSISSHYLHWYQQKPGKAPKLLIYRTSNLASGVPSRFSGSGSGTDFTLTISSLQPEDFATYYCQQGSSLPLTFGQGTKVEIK	2.14
1D5v24 (antibody, IgG1, V domains shown, humanized variant of 1D5) VH: EVQLVQSGAEVKKPGASVKVSCKASGYAFTSQNIYWVRQAPGQGLEWIGYIEPYNVVPMYNPKFKGRVTITVDKSTSTAYLELSSLRSEDTAVYYCARSGSSNFDYWGQGTLVTVSS VL: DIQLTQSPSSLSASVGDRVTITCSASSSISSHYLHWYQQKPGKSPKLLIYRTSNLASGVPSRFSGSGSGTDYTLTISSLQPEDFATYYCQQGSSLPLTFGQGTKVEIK	1.62

Incoming: Request the reported Kd associated with 1D5v15 (antibody, IgG1, V domains shown, humanized variant of 1D5) VH: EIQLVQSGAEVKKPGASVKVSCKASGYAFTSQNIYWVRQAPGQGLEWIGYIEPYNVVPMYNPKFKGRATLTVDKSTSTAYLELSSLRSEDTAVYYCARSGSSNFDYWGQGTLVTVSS VL: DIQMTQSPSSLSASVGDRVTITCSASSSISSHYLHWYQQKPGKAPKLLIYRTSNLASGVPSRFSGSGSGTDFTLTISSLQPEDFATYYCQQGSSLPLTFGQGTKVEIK
Outgoing: 1.26
